From: patent US8309766B2

test system: "hot plate" test in mice; assay: Analgetic activity on the model "hot plate"; assay type: in vivo, white mongrel mice; conditions: 10 mg/kg, 120 minutes post administration
parameter: latent time of nociception threshold, M ± m
Express your answer as a number followed by its unit.

Identify the reported latent time of nociception threshold, M ± m for the following entry. O=C(CCc1ccc(O)cc1)NCCc1ccccc1 [Compound IX]
9.83 ± 2.52 s

Give recorded latent time of nociception threshold, M ± m. COC(=O)[C@H](Cc1ccccc1)NC(=O)CCc1ccc(O)cc1 [Compound XIII]
6.8 ± 0.3 s

Answer with reported latent time of nociception threshold, M ± m of O=C(Cc1ccc(O)cc1)NC(Cc1ccccc1)C(=O)O (centres unmarked) [Compound III, p-hydroxyphenylacetylphenylalanine]
7.0 ± 0.6 s

Read the entry O=C(Cc1ccc(O)cc1)NC(Cc1ccc(O)cc1)C(=O)O (centres unmarked) [Compound II, p-hydroxyphenylacetyltyrosine] and write its reported latent time of nociception threshold, M ± m.
7.3 ± 0.6 s

Write down latent time of nociception threshold, M ± m measured for item COC(=O)C(Cc1ccc(O)cc1)NC(=O)Cc1ccc(O)cc1 (centres unmarked) [Compound IV]
5.93 ± 0.59 s

Check the records and state latent time of nociception threshold, M ± m for COC(=O)C(Cc1ccccc1)NC(=O)Cc1ccc(O)cc1 (centres unmarked) [Compound V]
6.58 ± 0.72 s

State its latent time of nociception threshold, M ± m for this compound: CC(=O)N[C@@H](Cc1ccc(O)cc1)C(=O)NCCc1ccc(O)cc1 [Compound XXIX, acetyltyrosyltyramine]
8.0 ± 1.0 s

Please indicate latent time of nociception threshold, M ± m recorded for O=C(CCc1ccc(O)cc1)N[C@@H](Cc1ccc(O)cc1)C(=O)O [Compound XIV, 3-(p-hydroxyphenyl)-propionyltyrosine]
7.3 ± 1.09 s

----------
system: "hot plate" test in mice; assay: Analgetic activity on the model "hot plate"; format: in vivo, white mongrel mice; conditions: 10 mg/kg, 60 minutes post administration
// class assignment uses latent time of nociception threshold, M ± m with these ranges: low group (below 6 s), middle group (6 s to below 7 s), high group (7 s or more)

Into which category would you place O=C(CCc1ccccc1)N[C@@H](Cc1ccc(O)cc1)C(=O)OCc1ccccc1 [Compound XXX, 3-phenylproponyltyrosine benzyl ester] ?
high group

Assign a category based on measured latent time of nociception threshold, M ± m for COC(=O)C(Cc1ccc(O)cc1)NC(=O)Cc1ccc(O)cc1 (stereo not drawn) [Compound IV] and give only the class name.
low group

Field: class (latent time of nociception threshold, M ± m) — entry: O=C(CCc1ccc(O)cc1)NCCc1ccc(O)cc1 [Compound X, 3-(p-hydroxyphenyl)-propionyltyramine]
low group

Which category does the recorded latent time of nociception threshold, M ± m put CC(=O)N[C@@H](Cc1ccc(O)cc1)C(=O)NCCc1ccccc1 [Compound XXVIII, acetyltyrosylphenylethylamine] in?
high group

State the class of the compound shown: O=C(Cc1ccccc1)NCCc1ccc(O)cc1 [Compound VI, phenylacetyltyramine]
high group

Into which category would you place O=C(CCc1ccccc1)NCCc1ccccc1 [Compound XI, 3-phenylpropionylphenylethylamine] ?
middle group

Hi there! Could you help me figure out the category for COC(=O)[C@H](Cc1ccccc1)NC(=O)CCc1ccc(O)cc1 [Compound XIII] please?
middle group

Using the reported latent time of nociception threshold, M ± m, which band applies to O=C(Cc1ccc(O)cc1)NCCc1ccccc1 ?
high group

Form: Item = O=C(CCc1ccc(O)cc1)NCCc1ccccc1 [Compound IX] ; Class = ?
high group

Category lookup for the compound O=C(CCc1ccc(O)cc1)N[C@@H](Cc1ccc(O)cc1)C(=O)O [Compound XIV, 3-(p-hydroxyphenyl)-propionyltyrosine]
low group

----------
tested on: "hot plate" test in mice; test: Analgetic activity on the model "hot plate"; assay type: in vivo, white mongrel mice; conditions: 10 mg/kg, 120 minutes post administration
Exercise: state measured latent time of nociception threshold, M ± m for each of the molecules provided.
// units = s; emit number, no label

Report latent time of nociception threshold, M ± m under test system "hot plate" test in mice for O=C(CCc1ccccc1)N[C@@H](Cc1ccc(O)cc1)C(=O)OCc1ccccc1 .
9.1

GET latent time of nociception threshold, M ± m where system = "hot plate" test in mice and item = O=C(Cc1ccc(O)cc1)NCCc1ccc(O)cc1 [Compound VII, p-hydroxyphenylacetyltyramine]
8.2

Please look at O=C(CCc1ccc(O)cc1)NCCc1ccc(O)cc1 [Compound X, 3-(p-hydroxyphenyl)-propionyltyramine] and tell me its recorded latent time of nociception threshold, M ± m on "hot plate" test in mice.
8.50

Tell me its latent time of nociception threshold, M ± m on "hot plate" test in mice: CC(=O)N[C@@H](Cc1ccc(O)cc1)C(=O)NCCc1ccccc1
11.6

Provide the reported latent time of nociception threshold, M ± m (system: "hot plate" test in mice) for O=C(Cc1ccccc1)NCCc1ccc(O)cc1
6.8

Report value: latent time of nociception threshold, M ± m, system: "hot plate" test in mice, molecule: O=C(Cc1ccc(O)cc1)NCCc1ccccc1
6.5

----------
Test system: "hot plate" test in mice
Assay: Analgetic activity on the model "hot plate"
Assay type: in vivo, white mongrel mice
Settings: 10 mg/kg, 30 minutes post administration
Procedure: The tests were conducted on males of white mongrel mice weighing 22-24 grams. The animals were individually placed on a hot plate (manufactured by the firm “Ugo Basile”), a temperature of which remained constant and was equal to 55° C. The following first manifestations of pain reaction were recorded: licking paws, jumping up prior to administration of a substance (background parameters) and 0.5, 1, 2, 3 and 4 hours post administration of a substance. […]
parameter: latent time of nociception threshold, M ± m (s)
Number in s, nothing else.

Give the reported value of latent time of nociception threshold, M ± m for this record: COC(=O)C(Cc1ccc(O)cc1)NC(=O)Cc1ccc(O)cc1 (stereo not shown)
5.24

// Input: O=C(Cc1ccc(O)cc1)NC(Cc1ccccc1)C(=O)O (stereo not shown) [Compound III, p-hydroxyphenylacetylphenylalanine] . Output its latent time of nociception threshold, M ± m only.
6.7

State, in one line, measured latent time of nociception threshold, M ± m of CC(=O)N[C@@H](Cc1ccc(O)cc1)C(=O)NCCc1ccc(O)cc1
6.3

Input O=C(Cc1ccccc1)NCCc1ccc(O)cc1 , output reported latent time of nociception threshold, M ± m.
7.8

----------
system: cyclooxygenase; assay: In vitro effect on [14C]arachidonic acid metabolism in a cell-free homogenate of murine pulmonary tissue; format: biochemical, CBA mice; conditions: compound 10^−4 M; 37° C., 30 minutes; change
parameter: AA (arachidonic acid)

Give AA (arachidonic acid) for the following compound: O=C(CCc1ccc(O)cc1)N[C@@H](Cc1ccc(O)cc1)C(=O)O [Compound XIV, 3-(p-hydroxyphenyl)-propionyltyrosine]
+84

Annotate the compound O=C(CCc1ccc(O)cc1)NCCc1ccccc1 with its measured AA (arachidonic acid).
+47

Identify measured AA (arachidonic acid) associated with O=C(Cc1ccc(O)cc1)NCCc1ccccc1
+40

Give a short answer stating reported AA (arachidonic acid) for O=C(CCc1ccc(O)cc1)NCCc1ccc(O)cc1 [Compound X, 3-(p-hydroxyphenyl)-propionyltyramine] .
+27

Answer with the recorded AA (arachidonic acid) of O=C(CCc1ccccc1)NCCc1ccc(O)cc1 only.
+42

----------
system: "acetic contortions" in mice; assay: Analgetic activity on the model "acetic contortions"; type: in vivo, white mongrel mice; conditions: Mus musculus, ip, 0.25 h, dose 10 mg/kg (table title), read-out: Analgetic effect (%)
Task for the reader: assign each of the following compounds its reported inhibition in vivo at 10 mg/kg.
Write down the numeric answer in % and omit the unit.

Kindly indicate its recorded inhibition in vivo at 10 mg/kg. Item: COC(=O)C(Cc1ccc(O)cc1)NC(=O)Cc1ccc(O)cc1 (stereo not shown) [Compound IV]
22.1

Query inhibition in vivo at 10 mg/kg for COC(=O)[C@H](Cc1ccccc1)NC(=O)CCc1ccc(O)cc1 [Compound XIII]
48.4

Specify inhibition in vivo at 10 mg/kg for CC(=O)N[C@@H](Cc1ccc(O)cc1)C(=O)NCCc1ccccc1 [Compound XXVIII, acetyltyrosylphenylethylamine] and stop.
42.1

Answer with the recorded inhibition in vivo at 10 mg/kg for the compound listed here: O=C(CCc1ccccc1)NCCc1ccc(O)cc1 [Compound XII, 3-phenylpropionyltyramine]
41.4

Look up inhibition in vivo at 10 mg/kg of O=C(Cc1ccc(O)cc1)NCCc1ccccc1 and report it.
56.5

Indicate the recorded inhibition in vivo at 10 mg/kg value for this compound: O=C(Cc1ccc(O)cc1)NC(Cc1ccccc1)C(=O)O (stereo not shown) [Compound III, p-hydroxyphenylacetylphenylalanine]
39.9

Retrieve inhibition in vivo at 10 mg/kg measured for O=C(CCc1ccc(O)cc1)NCCc1ccc(O)cc1 [Compound X, 3-(p-hydroxyphenyl)-propionyltyramine] and print it.
54

For O=C(CCc1ccc(O)cc1)NCCc1ccccc1 [Compound IX] , write its inhibition in vivo at 10 mg/kg.
68

Look up and state reported inhibition in vivo at 10 mg/kg for COC(=O)C(Cc1ccccc1)NC(=O)Cc1ccc(O)cc1 (stereo not shown) [Compound V]
39.3

Output measured inhibition in vivo at 10 mg/kg for this item: O=C(Cc1ccc(O)cc1)NC(Cc1ccc(O)cc1)C(=O)O (stereo not shown) [Compound II, p-hydroxyphenylacetyltyrosine]
24.8

Tell us which inhibition in vivo at 10 mg/kg value is on record for O=C(CCc1ccccc1)NCCc1ccccc1 [Compound XI, 3-phenylpropionylphenylethylamine]
38.2

Specify reported inhibition in vivo at 10 mg/kg for the compound shown: O=C(Cc1ccccc1)NCCc1ccc(O)cc1 [Compound VI, phenylacetyltyramine]
25.5

// Input: CC(=O)N[C@@H](Cc1ccc(O)cc1)C(=O)NCCc1ccc(O)cc1 [Compound XXIX, acetyltyrosyltyramine] . Output its inhibition in vivo at 10 mg/kg only.
42.9
